- Test system: DMS 114 tumor spheroids, viability % test/control
- test summary: Anticancer human tumor DMS 114 cell line growth inhibition;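 also: spheroids exposed to compounds for 7 days before read-out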
- setup conditions: curve of first compound; second compound 31.6 µM; spheroids with HUVEC and MSC
reported property: pIC50
Please keep in mind that pIC50 is minus log10 of the molar concentration; only the number is needed.

Prompt: Look up and report measured pIC50 (DMS 114 tumor spheroids, viability % test/control) for the following compound: Cc1sc2c(c1C)C(c1ccc(Cl)cc1)=NC(CC(=O)Nc1ccc(O)cc1)c1nnc(C)n1-2 (stereo not given) + Cn1nnc2c(C(N)=O)ncn2c1=O
Completion: 6.78

Prompt: Look up and report measured pIC50 (DMS 114 tumor spheroids, viability % test/control) for the following compound: CNCc1ccc(-c2cc(-c3nc(-c4ccc(S(=O)(=O)C(C)C)cc4)cnc3N)on2)cc1 + Cn1nnc2c(C(N)=O)ncn2c1=O
Completion: 6.79

Prompt: Look up and report measured pIC50 (DMS 114 tumor spheroids, viability % test/control) for the following compound: CC(C)n1c(=O)n(C)c2cnc3cc(F)c(-c4ccc(OCCCN5CCCCC5)nc4)cc3c21 + Cn1nnc2c(C(N)=O)ncn2c1=O
Completion: 5.22

Prompt: Look up and report measured pIC50 (DMS 114 tumor spheroids, viability % test/control) for the following compound: COc1ccc([C@@H](O)c2cc(-c3ncnc4cc(N5CCOCC5)ccc34)c(F)cc2Cl)nn1 + Cn1nnc2c(C(N)=O)ncn2c1=O
Completion: 5.07

Prompt: Look up and report measured pIC50 (DMS 114 tumor spheroids, viability % test/control) for the following compound: O=C(c1cc(Cc2n[nH]c(=O)c3ccccc23)ccc1F)N1CCN(C(=O)C2CC2)CC1 + Cn1nnc2c(C(N)=O)ncn2c1=O
Completion: 5.58

* * *

- System: DMS 114 tumor spheroids, viability % test/control
- test summary: Anticancer human tumor DMS 114 cell line growth inhibition;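 also: spheroids exposed to compounds for 7 days before read-out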;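 as to viability, T/C: luminescence used as a proxy for viable cells; 100% = DMSO vehicle control viability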
- setup conditions: second compound 1 µM; first compound 0.316 µM; stronger effect = lower value; spheroids with HUVEC and MSC
- Protocol: Multicellular complex tumor spheroid response to DNA repair inhibitors in combination with DNA-damaging drugs This study explores the anticancer activities of DNA-damaging drugs and inhibitors of DNA damage repair, both as single agents and in combinations. […] Twenty-six patient-derived or established malignant cell lines were evaluated representing sarcoma, melanoma, small cell lung cancer (SCLC), non-small cell lung cancer (NSCLC), as well as bladder, ovarian and pancreatic cancers. […]
reported property: viability, T/C (%)
Field: numeric (%). Do not append units.

Prompt: // Input: [2H]c1nc(C)nc([2H])c1-c1cc(NC[C@@H](C)c2cccc3c(C(=O)NC)ccnc23)ncn1 + Cn1nnc2c(C(N)=O)ncn2c1=O . Output its viability, T/C only.
Completion: 98.4

Prompt: // Input: COc1ccc([C@@H](O)c2cc(-c3ncnc4cc(N5CCOCC5)ccc34)c(F)cc2Cl)nn1 + Cn1nnc2c(C(N)=O)ncn2c1=O . Output its viability, T/C only.
Completion: 99.3

Prompt: // Input: Cc1cc(C)c(CNC(=O)c2cc(-c3ccc(CN4CCOCC4)cc3)cc3c2cnn3C2CCCC2)c(=O)[nH]1 + Cn1nnc2c(C(N)=O)ncn2c1=O . Output its viability, T/C only.
Completion: 104

Prompt: // Input: COc1cc(C)[nH]c(=O)c1CN1CCc2c(Cl)cc(C(OC)C3COC3)c(Cl)c2C1=O (stereo unspecified) + Cn1nnc2c(C(N)=O)ncn2c1=O . Output its viability, T/C only.
Completion: 82.7

Prompt: // Input: CC1COCCN1c1cc(-c2ccnn2C)c2ccnc(-c3ccn[nH]3)c2n1 (stereo unspecified) + Cn1nnc2c(C(N)=O)ncn2c1=O . Output its viability, T/C only.
Completion: 22.8

Prompt: // Input: CC(C)n1c(=O)n(C)c2cnc3cc(F)c(-c4ccc(OCCCN5CCCCC5)nc4)cc3c21 + Cn1nnc2c(C(N)=O)ncn2c1=O . Output its viability, T/C only.
Completion: 101

* * *

- Tested on: DMS 114 tumor spheroids, viability % test/control
- test summary: Anticancer human tumor DMS 114 cell line growth inhibition; active means viability on the fitted dose curve at most 10% of control; inactive means the rest;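 also: spheroids exposed to compounds for 7 days before read-out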
- setup conditions: second compound 0.003 µM; first compound 0.00949 µM; spheroids with HUVEC and MSC
The reply should name one outcome from active, inactive

Prompt: Please indicate how the test categorized Cn1ncnc1[C@H]1c2n[nH]c(=O)c3cc(F)cc(c23)N[C@@H]1c1ccc(F)cc1 + COc1cc2c(cc1O)CCNC21CSC2c3c(OC(C)=O)c(C)c4c(c3C(COC1=O)N1C(O)C3Cc5cc(C)c(OC)c(O)c5C(C21)N3C)OCO4 .
Completion: active

Prompt: Please indicate how the test categorized CNCc1ccc(-c2cc(-c3nc(-c4ccc(S(=O)(=O)C(C)C)cc4)cnc3N)on2)cc1 + CC[C@@]1(O)C(=O)OCc2c1cc1n(c2=O)Cc2cc3c(CN(C)C)c(O)ccc3nc2-1 .
Completion: inactive

Prompt: Please indicate how the test categorized Cn1ncnc1[C@H]1c2n[nH]c(=O)c3cc(F)cc(c23)N[C@@H]1c1ccc(F)cc1 + CC[C@@]1(O)C(=O)OCc2c1cc1n(c2=O)Cc2cc3c(CN(C)C)c(O)ccc3nc2-1 .
Completion: inactive

* * *

- System: DMS 114 tumor spheroids, viability % test/control
- test summary: Anticancer human tumor DMS 114 cell line growth inhibition;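 also: spheroids exposed to compounds for 7 days before read-out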;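 as to viability, T/C: luminescence used as a proxy for viable cells; 100% = DMSO vehicle control viability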
- setup conditions: second compound 31.6 µM; first compound 0.0316 µM; stronger effect = lower value; spheroids with HUVEC and MSC
reported property: viability, T/C (%)
Field: numeric (%). Do not append units.

Prompt: Look up and report measured viability, T/C (DMS 114 tumor spheroids, viability % test/control) for the following compound: CC(C)n1c(=O)n(C)c2cnc3cc(F)c(-c4ccc(OCCCN5CCCCC5)nc4)cc3c21 + Cn1nnc2c(C(N)=O)ncn2c1=O
Completion: 99.6

Prompt: Look up and report measured viability, T/C (DMS 114 tumor spheroids, viability % test/control) for the following compound: COc1ccc([C@@H](O)c2cc(-c3ncnc4cc(N5CCOCC5)ccc34)c(F)cc2Cl)nn1 + Cn1nnc2c(C(N)=O)ncn2c1=O
Completion: 104

Prompt: Look up and report measured viability, T/C (DMS 114 tumor spheroids, viability % test/control) for the following compound: CC1COCCN1c1cc(-c2ccnn2C)c2ccnc(-c3ccn[nH]3)c2n1 (stereo unspecified) + Cn1nnc2c(C(N)=O)ncn2c1=O
Completion: 36.9

Prompt: Look up and report measured viability, T/C (DMS 114 tumor spheroids, viability % test/control) for the following compound: [2H]c1nc(C)nc([2H])c1-c1cc(NC[C@@H](C)c2cccc3c(C(=O)NC)ccnc23)ncn1 + Cn1nnc2c(C(N)=O)ncn2c1=O
Completion: 104

Prompt: Look up and report measured viability, T/C (DMS 114 tumor spheroids, viability % test/control) for the following compound: Cc1cc(C)c(CNC(=O)c2cc(-c3ccc(CN4CCOCC4)cc3)cc3c2cnn3C2CCCC2)c(=O)[nH]1 + Cn1nnc2c(C(N)=O)ncn2c1=O
Completion: 113

Prompt: Look up and report measured viability, T/C (DMS 114 tumor spheroids, viability % test/control) for the following compound: COc1cc(C)[nH]c(=O)c1CN1CCc2c(Cl)cc(C(OC)C3COC3)c(Cl)c2C1=O (stereo unspecified) + Cn1nnc2c(C(N)=O)ncn2c1=O
Completion: 102

* * *

- Tested on: DMS 114 tumor spheroids, viability % test/control
- test summary: Anticancer human tumor DMS 114 cell line growth inhibition; active means viability on the fitted dose curve at most 10% of control; inactive means the rest;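 also: spheroids exposed to compounds for 7 days before read-out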
- setup conditions: second compound 0.003 µM; first compound 0.00949 µM; spheroids with HUVEC and MSC
The reply should name one outcome from Yes = active, No = inactive

Prompt: Please indicate how the test categorized Cc1sc2c(c1C)C(c1ccc(Cl)cc1)=NC(CC(=O)Nc1ccc(O)cc1)c1nnc(C)n1-2 (stereo not drawn) + CC[C@@]1(O)C(=O)OCc2c1cc1n(c2=O)Cc2cc3c(CN(C)C)c(O)ccc3nc2-1 .
Completion: No

Prompt: Please indicate how the test categorized CNCc1ccc(-c2cc(-c3nc(-c4ccc(S(=O)(=O)C(C)C)cc4)cnc3N)on2)cc1 + COc1cc2c(cc1O)CCNC21CSC2c3c(OC(C)=O)c(C)c4c(c3C(COC1=O)N1C(O)C3Cc5cc(C)c(OC)c(O)c5C(C21)N3C)OCO4 .
Completion: Yes

Prompt: Please indicate how the test categorized Cc1sc2c(c1C)C(c1ccc(Cl)cc1)=NC(CC(=O)Nc1ccc(O)cc1)c1nnc(C)n1-2 (stereo not drawn) + COc1cc2c(cc1O)CCNC21CSC2c3c(OC(C)=O)c(C)c4c(c3C(COC1=O)N1C(O)C3Cc5cc(C)c(OC)c(O)c5C(C21)N3C)OCO4 .
Completion: Yes

* * *

- System: DMS 114 tumor spheroids, viability % test/control
- test summary: Anticancer human tumor DMS 114 cell line growth inhibition;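 also: spheroids exposed to compounds for 7 days before read-out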;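 as to viability, T/C: luminescence used as a proxy for viable cells; 100% = DMSO vehicle control viability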
- setup conditions: second compound 0.0949 µM; first compound 0.316 µM; stronger effect = lower value; spheroids with HUVEC and MSC
Could you mark each record true if its viability, T/C falls strictly under 10%, and false if it equals or exceeds it?

Prompt: Input CC1COCCN1c1cc(-c2ccnn2C)c2ccnc(-c3ccn[nH]3)c2n1 (stereo unspecified) + CC[C@@]1(O)C(=O)OCc2c1cc1n(c2=O)Cc2cc3c(CN(C)C)c(O)ccc3nc2-1 ; condition: viability, T/C strictly below 10%. Does it hold?
Completion: true

Prompt: Input CC(C)n1c(=O)n(C)c2cnc3cc(F)c(-c4ccc(OCCCN5CCCCC5)nc4)cc3c21 + CC[C@@]1(O)C(=O)OCc2c1cc1n(c2=O)Cc2cc3c(CN(C)C)c(O)ccc3nc2-1 ; condition: viability, T/C strictly below 10%. Does it hold?
Completion: false

Prompt: Input COc1cc(C)[nH]c(=O)c1CN1CCc2c(Cl)cc(C(OC)C3COC3)c(Cl)c2C1=O (stereo unspecified) + CC[C@@]1(O)C(=O)OCc2c1cc1n(c2=O)Cc2cc3c(CN(C)C)c(O)ccc3nc2-1 ; condition: viability, T/C strictly below 10%. Does it hold?
Completion: false

Prompt: Input [2H]c1nc(C)nc([2H])c1-c1cc(NC[C@@H](C)c2cccc3c(C(=O)NC)ccnc23)ncn1 + CC[C@@]1(O)C(=O)OCc2c1cc1n(c2=O)Cc2cc3c(CN(C)C)c(O)ccc3nc2-1 ; condition: viability, T/C strictly below 10%. Does it hold?
Completion: false

Prompt: Input COc1ccc([C@@H](O)c2cc(-c3ncnc4cc(N5CCOCC5)ccc34)c(F)cc2Cl)nn1 + CC[C@@]1(O)C(=O)OCc2c1cc1n(c2=O)Cc2cc3c(CN(C)C)c(O)ccc3nc2-1 ; condition: viability, T/C strictly below 10%. Does it hold?
Completion: false

Prompt: Input Cc1cc(C)c(CNC(=O)c2cc(-c3ccc(CN4CCOCC4)cc3)cc3c2cnn3C2CCCC2)c(=O)[nH]1 + CC[C@@]1(O)C(=O)OCc2c1cc1n(c2=O)Cc2cc3c(CN(C)C)c(O)ccc3nc2-1 ; condition: viability, T/C strictly below 10%. Does it hold?
Completion: false

Taken from PubChem BioAssay AID1845202.
